# Tested on: human pluripotent stem cells
# Procedure Details: HD-DoE 12-factor experiment for stage 1 recipe, gene expression by quantitative PCR after 3 days
# Assay type: cell-based
# Condition Parameters: positive impact; model optimized for maximum expression of FEZF2
Kindly state factor contribution on expression of FEZF2 for each of the entries shown.
Give bare numbers.

See these solved cases before continuing.
### Prompt Data request, read-out factor contribution on expression of FEZF2, for C/C(=C\c1ccc(C(=O)O)cc1)c1ccc2c(c1)C(C)(C)CCC2(C)C [TTNPB]
### Response 24

### Prompt What do you have for c1ccc2c(Oc3nc(Nc4ccc(N5CCOCC5)cc4)c4ncn(C5CCCCC5)c4n3)cccc2c1 [Purmorphamine] ?
### Response 7

### Prompt Item: O=C(NOC[C@H](O)CO)c1ccc(F)c(F)c1Nc1ccc(I)cc1F [PD0325901]
### Response 10

// next item, factor contribution on expression of FEZF2 requested
### Prompt Return reported factor contribution on expression of FEZF2; argument: c1ccc2c(-c3cnn4cc(-c5ccc(N6CCNCC6)cc5)cnc34)ccnc2c1 [LDN193189]
### Response 25

* * *

# System: human pluripotent stem cells
# Procedure Details: factor criticality analysis (dynamic profile analysis) of stage 1 recipe
# Type: cell-based
# Set-up: unit not given here
# Condition Parameters: other five factors present, 2000 with all six factors
Exercise: for every item that follows, state its recorded expression level of FEZF2 when the effector is removed.
Answers are plain numbers.

See these solved cases before continuing.
### Prompt So what's the measured expression level of FEZF2 when the effector is removed for this one? Oc1nc(-c2ccc(C(F)(F)F)cc2)nc2c1CSCC2 [XAV939]
### Response 1700

### Prompt Also c1ccc2c(-c3cnn4cc(-c5ccc(N6CCNCC6)cc5)cnc34)ccnc2c1 [LDN193189] ?
### Response 1000

Attention now shifts to the item below.
### Prompt Fill in: expression level of FEZF2 when the effector is removed of c1ccc2c(Oc3nc(Nc4ccc(N5CCOCC5)cc4)c4ncn(C5CCCCC5)c4n3)cccc2c1 [Purmorphamine] is ___
### Response 1000

* * *

# System: MGE progenitor cells
# Procedure Details: HD-DoE 12-factor experiment for stage 4 recipe, optimized for MEF2C
# Assay type: cell-based, human
# Condition Parameters: dynamic profile analysis, FIG. 20
Endpoint Label: impact on expression of MEF2C

### Prompt Give its impact on expression of MEF2C value. Item: NC(=O)c1ccc(-c2nc(-c3ccc4c(c3)OCO4)c(-c3ccccn3)[nH]2)cc1
### Response negative effect

### Prompt How about c1ccc2c(-c3cnn4cc(-c5ccc(N6CCNCC6)cc5)cnc34)ccnc2c1 ?
### Response negative effect

### Prompt Repeat for the following compound: C[C@H](NC(=O)Cc1cc(F)cc(F)c1)C(=O)N[C@@H]1C(=O)N(C)c2ccccc2-c2ccccc21
### Response negative effect

* * *

# Tested on: human pluripotent stem cells
# Procedure Details: additional HD-DoE experiment for stage 1 (forebrain differentiation from pluripotency), optimized for FEZF2
# Assay type: cell-based
# Condition Parameters: positive impact; additional stage 1 experiment optimized for FEZF2, FIG. 5
Kindly supply the reported factor contribution on expression of FEZF2 values for the records listed here.
Give bare numbers.

Worked set:
### Prompt Given c1ccc2c(Oc3nc(Nc4ccc(N5CCOCC5)cc4)c4ncn(C5CCCCC5)c4n3)cccc2c1 , state its recorded factor contribution on expression of FEZF2.
### Response 11

### Prompt Continue with Oc1nc(-c2ccc(C(F)(F)F)cc2)nc2c1CSCC2
### Response 12

### Prompt Same question for O=C(NOC[C@H](O)CO)c1ccc(F)c(F)c1Nc1ccc(I)cc1F please.
### Response 15

# input for lookup
### Prompt Quick check: factor contribution on expression of FEZF2 of c1ccc2c(-c3cnn4cc(-c5ccc(N6CCNCC6)cc5)cnc34)ccnc2c1 ?
### Response 18
